# subject-of-test: UniProt Q9BXC1
# Sequence (Q9BXC1 whole entry): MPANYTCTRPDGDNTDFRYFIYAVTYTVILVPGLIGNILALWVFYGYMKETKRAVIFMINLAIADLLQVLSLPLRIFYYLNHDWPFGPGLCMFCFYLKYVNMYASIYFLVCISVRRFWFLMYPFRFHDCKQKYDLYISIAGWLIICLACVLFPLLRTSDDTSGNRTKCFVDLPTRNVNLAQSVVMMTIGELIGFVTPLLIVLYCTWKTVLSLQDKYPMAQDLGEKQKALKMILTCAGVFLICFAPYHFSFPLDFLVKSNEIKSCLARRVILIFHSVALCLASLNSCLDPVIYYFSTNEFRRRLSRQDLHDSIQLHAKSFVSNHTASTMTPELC
# test-description: CRE-Luc reporter Gs signaling assay with GPR174
# Assay type: cell-based
# Set-up: host or cells: HEK293 or CHO cell lines (ATCC)
# measurement-setup: pCRE-Luc reporter
assay-readout: Fold decrease in Gs signaling activity (fold)
Numeric only. Scale: fold

Example compounds with recorded Fold decrease in Gs signaling activity:
{"columns": ["compound", "subject-of-test", "unit-annotation", "Fold decrease in Gs signaling activity"],
 "data": [
  ["O=[N+]([O-])c1cc(F)c(N2CCCCC2)cc1N1CCN(S(=O)(=O)c2ccccc2)CC1", "UniProt Q9BXC1", "fold", 3.1],
  ["CC(C)Oc1ccc(C2C3=C(CCCC3=O)NC3=C2C(=O)c2ccccc23)cc1 (stereo not shown)", "UniProt Q9BXC1", "fold", 14.3],
  ["CCOc1ccc(C2C3=C(CCCC3=O)NC3=C2C(=O)c2ccccc23)cc1OCC (stereo not shown)", "UniProt Q9BXC1", "fold", 2.2]
]}

Form field: reported Fold decrease in Gs signaling activity of O=C1CCCC2=C1C(c1ccc(F)cc1)C1=C(N2)c2ccccc2C1=O (stereo not shown)
2.8
